# test.details: chemical recovery from spiked human plasma; higher = better extraction
# cond: pooled human plasma; extraction method: SPE only (HLB 96-well)

>  <compound>
Cc1cc(O)cc(C)c1[S+](C)[O-] (stereo not drawn) [Methiocarb-sulfoxide-phenol]

>  <chemical recovery / %>
47.4

$$$$
>  <compound>
CC1(C)[C@@H](O[C@H]2O[C@H](C(=O)O)[C@@H](O)[C@H](O)[C@H]2O[C@@H]2O[C@H](C(=O)O)[C@@H](O)[C@H](O)[C@H]2O)CC[C@]2(C)[C@H]3C(=O)C=C4[C@@H]5C[C@@](C)(C(=O)O)CC[C@]5(C)CC[C@@]4(C)[C@]3(C)CC[C@@H]12

>  <chemical recovery / %>
16.6

$$$$
>  <compound>
CC(C)Oc1cc(-n2nc(C(C)(C)C)oc2=O)c(Cl)cc1Cl

>  <chemical recovery / %>
43.6

$$$$
>  <compound>
CC(C)NCC(O)COc1ccc(COCCOC(C)C)cc1 (stereo not drawn)

>  <chemical recovery / %>
42.2

$$$$
>  <compound>
COCCCC/C(=N\OCCN)c1ccc(C(F)(F)F)cc1

>  <chemical recovery / %>
51

$$$$
>  <compound>
O=S(=O)(O)C(F)(F)C(F)(F)C(F)(F)C(F)(F)C(F)(F)F

>  <chemical recovery / %>
36.5

$$$$
>  <compound>
CCNc1ccc2c(C)cc(=O)oc2c1 [7-(Ethylamino)-4-methylcoumarin]

>  <chemical recovery / %>
45.6

$$$$
>  <compound>
C[C@H](CCC(=O)O)[C@H]1CC[C@H]2[C@@H]3C(=O)C[C@@H]4C[C@H](O)CC[C@]4(C)[C@H]3CC[C@]12C

>  <chemical recovery / %>
38.6

$$$$
>  <compound>
c1ccc2[nH]nnc2c1

>  <chemical recovery / %>
48.2

$$$$
>  <compound>
CCNc1nc(NCC)nc(SC)n1

>  <chemical recovery / %>
41.6

$$$$
>  <compound>
Cc1ccc2ccc3ccc(C)cc3c2c1

>  <chemical recovery / %>
2.62

$$$$
>  <compound>
Cc1cc(-c2ccc(N)c(C)c2)ccc1N

>  <chemical recovery / %>
37.1

$$$$
>  <compound>
Brc1cc(Br)c(Oc2cc(Br)c(Br)cc2Br)cc1Br

>  <chemical recovery / %>
6.21

$$$$
>  <compound>
CCOC(=O)c1ccc(N)cc1

>  <chemical recovery / %>
39.3

$$$$
>  <compound>
CC(CCc1ccccc1)NCC(O)c1ccc(O)c(C(N)=O)c1 (stereo not drawn)

>  <chemical recovery / %>
55.6

$$$$
>  <compound>
NC1CCCCC1

>  <chemical recovery / %>
2.07

$$$$
>  <compound>
CC(C)(c1ccccc1)c1cc(-n2nc3ccccc3n2)c(O)c(C(C)(C)c2ccccc2)c1

>  <chemical recovery / %>
0.688

$$$$
>  <compound>
CC(=O)CCCCn1c(=O)c2c(ncn2C)n(C)c1=O

>  <chemical recovery / %>
46.9

$$$$

====

# test.details: chemical recovery from spiked human plasma; higher = better extraction
# cond: pooled human plasma; extraction method: PES+SPE (3 d PDMS equilibration then HLB SPE)

>  <compound>
Oc1ccc(C(c2ccc(O)cc2)(C(F)(F)F)C(F)(F)F)cc1

>  <chemical recovery>
86.8%

$$$$
>  <compound>
Clc1cc(-c2cc(Cl)c(Cl)c(Cl)c2Cl)c(Cl)c(Cl)c1Cl

>  <chemical recovery>
38.3%

$$$$
>  <compound>
Cc1cc(Cl)ccc1OCC(=O)O

>  <chemical recovery>
46.2%

$$$$
>  <compound>
CN(C)C(=O)Nc1ccc(Cl)cc1

>  <chemical recovery>
60.2%

$$$$
>  <compound>
CC1COCc2cc3c(cc21)C(C)(C)C(C)C3(C)C (stereo unspecified) [Galaxolide]

>  <chemical recovery>
39.1%

$$$$
>  <compound>
O=C1C=C(N(Cc2ccc(Cl)nc2)CC(F)F)CO1

>  <chemical recovery>
43.9%

$$$$
>  <compound>
Cc1c(Br)c(Br)c(Br)c(Br)c1Br

>  <chemical recovery>
61.6%

$$$$
>  <compound>
CNC(=O)Oc1cccc2c1OC(C)(C)C2

>  <chemical recovery>
41.4%

$$$$
>  <compound>
N#Cc1cc(Cl)c(O)c(Cl)c1

>  <chemical recovery>
59%

$$$$
>  <compound>
CC(Oc1ccc(Oc2nc3ccc(Cl)cc3o2)cc1)C(=O)O (stereo unspecified)

>  <chemical recovery>
42.2%

$$$$
>  <compound>
Nc1ccc(Nc2ccccc2)cc1

>  <chemical recovery>
1.74%

$$$$

====

# test.details: chemical recovery from spiked human plasma; higher = better extraction
# cond: pooled human plasma; extraction method: SPE only (HLB 96-well)
// label = 1 if chemical recovery is not less than 30%, otherwise 0

>  <compound>
Cc1nc(N(C)C)nc(OC(=O)N(C)C)c1C

>  <group.label>
1

$$$$
>  <compound>
NCC1(CC(=O)O)CCCCC1

>  <group.label>
0

$$$$
>  <compound>
CSc1nc(NC2CC2)nc(NC(C)(C)C)n1

>  <group.label>
1

$$$$
>  <compound>
O=C(O)C(F)(F)C(F)(F)C(F)(F)C(F)(F)F

>  <group.label>
1

$$$$
>  <compound>
COCCc1ccc(OCC(O)CNC(C)C)cc1 (configuration not stated)

>  <group.label>
1

$$$$
>  <compound>
C1=Cc2cccc3cccc1c23

>  <group.label>
0

$$$$
>  <compound>
O=c1ccc2ccccc2[nH]1 [2-Hydroxyquinoline]

>  <group.label>
1

$$$$
>  <compound>
Clc1ccc(C(c2ccc(Cl)cc2)C(Cl)(Cl)Cl)cc1

>  <group.label>
0

$$$$
>  <compound>
CCCCCCCCCCCC[N+](C)(C)[O-] [N,N-Dimethyldodecylamine N-oxide]

>  <group.label>
1

$$$$
>  <compound>
Fc1ccc(Oc2ccnc3cc(Cl)cc(Cl)c23)cc1

>  <group.label>
1

$$$$
>  <compound>
CCCCCCCCSc1nc(Nc2cc(C(C)(C)C)c(O)c(C(C)(C)C)c2)nc(SCCCCCCCC)n1

>  <group.label>
0

$$$$
>  <compound>
O=C(O)C(F)(F)C(F)(F)C(F)(F)C(F)(F)C(F)(F)C(F)(F)C(=O)O

>  <group.label>
0

$$$$
>  <compound>
CC(C)C[C@H](CN)CC(=O)O

>  <group.label>
0

$$$$
>  <compound>
CCOP(=S)(OCC)SCSP(=S)(OCC)OCC

>  <group.label>
1

$$$$
>  <compound>
CCCCc1nc(Cl)c(CO)n1Cc1ccc(-c2ccccc2-c2nnn[nH]2)cc1

>  <group.label>
1

$$$$
>  <compound>
Nc1nc(N)nc(N)n1

>  <group.label>
0

$$$$
>  <compound>
CC(C)N1C(=O)c2ccccc2N(C)S1(=O)=O

>  <group.label>
0

$$$$
>  <compound>
CCCCOC(=O)c1ccc(O)cc1

>  <group.label>
1

$$$$
>  <compound>
C=Cc1c2ccccc2cc2ccccc12

>  <group.label>
0

$$$$
>  <compound>
O=C(O)c1ccc(Cl)cc1Cl

>  <group.label>
1

$$$$
>  <compound>
Clc1ccc(-c2cc(Cl)c(Cl)cc2Cl)cc1Cl

>  <group.label>
0

$$$$

====

# test.details: chemical recovery by SPE of plasma after PDMS sampling; higher = better extraction
# cond: pooled human plasma; extraction method: HLB SPE of plasma after PES; equilibration time (d): 6
Just so you know, the groups by chemical recovery by SPE of plasma go like this: Low: < 0.2%; Mid: ≥ 0.2% and < 10%; High: ≥ 10%

>  <compound>
CCNc1nc(Cl)nc(NC(C)(C)C)n1 [Terbuthylazine]

>  <group.label>
Mid

$$$$
>  <compound>
c1ccc2ncccc2c1 [Quinoline]

>  <group.label>
Low

$$$$
>  <compound>
CN[C@H]1CC[C@@H](c2ccc(Cl)c(Cl)c2)c2ccccc21 [Sertraline]

>  <group.label>
Low

$$$$
>  <compound>
NC(=O)N=C(N)N [Guanylurea]

>  <group.label>
Mid

$$$$
>  <compound>
CCCNCCOc1c(Cl)cc(Cl)cc1Cl [Prochloraz BTS403-48]

>  <group.label>
Low

$$$$
>  <compound>
C[C@@H]1C[C@H]2[C@@H]3C[C@H](F)C4=CC(=O)C=C[C@]4(C)[C@@]3(F)[C@@H](O)C[C@]2(C)[C@@]1(O)C(=O)CO [Flumethasone]

>  <group.label>
High

$$$$
>  <compound>
ClC1=C(Cl)C2(Cl)C3C4C=CC(C4)C3C1(Cl)C2(Cl)Cl (centres undefined) [Aldrin]

>  <group.label>
Mid

$$$$
>  <compound>
CCC1=C(C)CN(C(=O)NCCc2ccc(S(=O)(=O)NC(=O)NC3CCC(C)CC3)cc2)C1=O (centres undefined) [Glimepiride]

>  <group.label>
High

$$$$

====

# test.details: chemical recovery from spiked human plasma; higher = better extraction
# cond: pooled human plasma; extraction method: SPE only (HLB 96-well)
Items are presented alongside their recorded chemical recovery.

>  <compound>
COc1cc(Cl)ccc1Oc1ccc(Cl)cc1Cl

>  <unit.annotation>
%

>  <chemical recovery>
0.483

$$$$
>  <compound>
CCOP(=S)(OCC)SCSCC [Phorate]

>  <unit.annotation>
%

>  <chemical recovery>
10.2

$$$$
>  <compound>
O=P(O)(Oc1ccccc1)Oc1ccccc1 [Diphenylphosphate]

>  <unit.annotation>
%

>  <chemical recovery>
44.6

$$$$
>  <compound>
Oc1ccccc1-c1ccccc1

>  <unit.annotation>
%

>  <chemical recovery>
19.9

$$$$
>  <compound>
COc1ccc2[nH]cc(CCNC(C)=O)c2c1

>  <unit.annotation>
%

>  <chemical recovery>
41.7

$$$$
>  <compound>
CCCC(C)C1(CC)C(=O)NC(=O)NC1=O (stereo not given)

>  <unit.annotation>
%

>  <chemical recovery>
43.8

$$$$
>  <compound>
c1ccc2c(c1)ccc1ccccc12

>  <unit.annotation>
%

>  <chemical recovery>
8.44

$$$$
>  <compound>
c1ccc2[nH]cnc2c1

>  <unit.annotation>
%

>  <chemical recovery>
4.01

$$$$
>  <compound>
Cc1cc2ccccc2cc1C

>  <unit.annotation>
%

>  <chemical recovery>
0.0627

$$$$
>  <compound>
CCNS(=O)(=O)C(F)(F)C(F)(F)C(F)(F)C(F)(F)C(F)(F)C(F)(F)C(F)(F)C(F)(F)F [N-Ethylperfluorooctane-sulfonamide]

>  <unit.annotation>
%

>  <chemical recovery>
2.91

$$$$
